# TARGET: T1, human CCL21 (human, UniProt O00585 24-134)
# T1 sequence: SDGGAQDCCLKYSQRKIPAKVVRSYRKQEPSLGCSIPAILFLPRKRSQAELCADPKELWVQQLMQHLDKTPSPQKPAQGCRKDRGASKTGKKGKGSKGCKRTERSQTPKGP
# TEST DESCRIPTION: cell-based or functional assay
METRIC: % inhibition of migration, recombinant hCCL21, H9 cells, 1:1 molar ratio (1st cell)
Answer as a quantity: numeral, then unit.

Some solved cases for reference:
>>> recorded_measurement("MOR08382_g3-23_gL6 (antibody, human IgG1, kappa, V domains shown) VH: EVQLLESGGGLVQPGGSLRLSCAASGFTFSSYWLNWVRQAPGKGLEWVSYISNQGDDTSYADSVKGRFTISRDNSKNTLYLQMNSLRAEDTAVYYCARDYQYIGDSFDIWGQGTLVTVSS VL: EIVLTQSPATLSLSPGERATLSCRASQYVSYVSLAWYQQKPGQAPRLLIYDASNRATGIPARFSGSGSGTDFTLTISSLEPEDFAVYYCQQYDDLSYTFGQGTKVEIKR")
"97%"
>>> recorded_measurement("MOR08378_g5-51_g2a2 (antibody, human IgG1, lambda, V domains shown) VH: EVQLVQSGAEVKKPGESLKISCKGSGYSFNNYWISWVRQMPGKGLEWMGIIDPTNSQTTYSPSFQGQVTISADKSISTAYLQWSSLKASDTAMYYCARDGYPIFDYWGQGTLVTVSS VL: QSALTQPASVSGSPGQSITISCTGTSSDLGGYNYVSWYQQHPGKAPKLMIYDVNYRPSGVSNRFSGSKSGNTASLTISGLQAEDEADYYCSSYTYYSNSGVFGGGTKLTVLG")
"87%"
>>> recorded_measurement("MOR06935_g3-23_g3j (antibody, V domains shown, also called QBP359; FW repaired germlined MOR06935) VH: EVQLLESGGGLVQPGGSLRLSCAASGFTFNSYSMSWVRQAPGKGLEWVSAISMEGYSKSYADSVKGRFTISRDNSKNTLYLQMNSLRAEDTAVYYCARGYGYYFDVWGQGTLVTVSS VL: SYELTQPLSVSVALGQTARITCGGDSIGSQYASWYQQKPGQAPVLVIYDDNERPSGIPERFSGSNSGNTATLTISRAQAGDEADYYCGSWDSNPTHVFGGGTKLTVLG")
"61%"

**Query** Fill in: % inhibition of migration, recombinant hCCL21, H9 cells, 1:1 molar ratio (1st cell) of MOR08389_g3-23_g3j (antibody, human IgG1, lambda, V domains shown) VH: EVQLLESGGGLVQPGGSLRLSCAASGFTFNSYSMSWVRQAPGKGLEWVSAISMEGYSKSYADSVKGRFTISRDNSKNTLYLQMNSLRAEDTAVYYCARGYGYYFDVWGQGTLVTVSS VL: SYELTQPLSVSVALGQTARITCGGDSIGSQYASWYQQKPGQAPVLVIYDDNERPSGIPERFSGSNSGNTATLTISRAQAGDEADYYCSSWDMDAVNVFGGGTKLTVLG is ___
**Result** 94%
